Origin of measurements: patent US20210283261A1

Target Entity: ALK fusion protein (Homo sapiens, UniProt Q9UM73)
Construct: endogenous in cells; host or cells: NCI-H3122; the other entry of the earlier key: EML4 (Q9HC35, Echinoderm microtubule-associated protein-like 4)
Sequence (Q9UM73 with tags, fused parts or gaps): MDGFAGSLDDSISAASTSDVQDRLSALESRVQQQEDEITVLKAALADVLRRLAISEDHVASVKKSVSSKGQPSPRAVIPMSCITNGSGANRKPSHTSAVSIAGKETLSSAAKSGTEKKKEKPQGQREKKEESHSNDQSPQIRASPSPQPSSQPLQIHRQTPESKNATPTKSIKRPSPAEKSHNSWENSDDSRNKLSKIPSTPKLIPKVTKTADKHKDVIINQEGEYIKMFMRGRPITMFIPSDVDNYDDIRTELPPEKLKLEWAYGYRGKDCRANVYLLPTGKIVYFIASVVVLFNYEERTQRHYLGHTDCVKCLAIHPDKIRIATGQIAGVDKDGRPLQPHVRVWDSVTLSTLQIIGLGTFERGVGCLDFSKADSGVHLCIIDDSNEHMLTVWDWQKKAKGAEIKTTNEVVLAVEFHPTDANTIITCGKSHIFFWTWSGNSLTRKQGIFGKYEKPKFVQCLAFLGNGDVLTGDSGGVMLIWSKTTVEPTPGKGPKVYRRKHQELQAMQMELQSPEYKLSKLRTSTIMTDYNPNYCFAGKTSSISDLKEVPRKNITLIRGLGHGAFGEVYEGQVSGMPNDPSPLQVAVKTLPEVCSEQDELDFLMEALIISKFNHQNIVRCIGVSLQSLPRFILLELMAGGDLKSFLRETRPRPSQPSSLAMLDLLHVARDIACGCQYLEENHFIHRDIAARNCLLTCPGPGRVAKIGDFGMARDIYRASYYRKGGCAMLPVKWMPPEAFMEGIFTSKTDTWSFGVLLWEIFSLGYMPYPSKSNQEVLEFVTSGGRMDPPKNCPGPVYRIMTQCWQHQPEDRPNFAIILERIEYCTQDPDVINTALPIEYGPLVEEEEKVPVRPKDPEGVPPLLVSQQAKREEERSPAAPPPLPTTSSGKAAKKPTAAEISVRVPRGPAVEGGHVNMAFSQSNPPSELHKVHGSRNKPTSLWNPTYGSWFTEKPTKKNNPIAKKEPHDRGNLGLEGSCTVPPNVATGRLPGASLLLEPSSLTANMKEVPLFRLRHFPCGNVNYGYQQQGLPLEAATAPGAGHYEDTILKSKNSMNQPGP
Assay Text: Western blot of ALK fusion protein levels in NCI-H3122 cells
Type: cell-based
Condition Set: NCI-H3122, NCI-H3122 cells, 500 nM, Western blot; read-out: ALK fusion protein degradation, NCI-H3122 (500 nM)
Quick reference for Dmax at 0.5 µM among some compounds

Cc1cc(Nc2ncc(Cl)c(Nc3ccccc3S(=O)(=O)C(C)C)n2)c(OC(C)C)cc1C1CCN(C(=O)CCCCCCC(=O)N[C@H](C(=O)N2C[C@H](O)C[C@H]2C(=O)NCc2ccc(-c3scnc3C)cc2)C(C)(C)C)CC1
> 80%

### Prompt Could you share what Dmax at 0.5 µM was measured for Cc1cc(Nc2ncc(Cl)c(Nc3ccccc3S(=O)(=O)C(C)C)n2)c(OC(C)C)cc1C1CCN(CC(=O)NCCOCCOCCOCCOCCOCCNc2cccc3c2C(=O)N(C2CCC(=O)N(C)C2=O)C3=O)CC1 (centres unmarked) , tested on ALK fusion protein (Homo sapiens, UniProt Q9UM73)?
### Response < 20%

### Prompt Could you share what Dmax at 0.5 µM was measured for Cc1cc(Nc2ncc(Cl)c(Nc3ccccc3S(=O)(=O)C(C)C)n2)c(OC(C)C)cc1C1CCN(C(=O)CCCC(=O)N[C@H](C(=O)N2C[C@H](O)C[C@H]2C(=O)NCc2ccc(-c3scnc3C)cc2)C(C)(C)C)CC1 , tested on ALK fusion protein (Homo sapiens, UniProt Q9UM73)?
### Response > 80%

### Prompt Could you share what Dmax at 0.5 µM was measured for Cc1cc(Nc2ncc(Cl)c(Nc3ccccc3S(=O)(=O)C(C)C)n2)c(OC(C)C)cc1C1CCN(C(=O)CCOCCOCCOCCC(=O)N[C@H](C(=O)N2C[C@H](O)C[C@H]2C(=O)NCc2ccc(-c3scnc3C)cc2)C(C)(C)C)CC1 , tested on ALK fusion protein (Homo sapiens, UniProt Q9UM73)?
### Response < 20%

### Prompt Could you share what Dmax at 0.5 µM was measured for Cc1cc(Nc2ncc(Cl)c(Nc3ccccc3S(=O)(=O)C(C)C)n2)c(OC(C)C)cc1C1CCN(C(=O)CCCNc2cccc3c2C(=O)N(C2CCC(=O)NC2=O)C3=O)CC1 (centres unmarked) , tested on ALK fusion protein (Homo sapiens, UniProt Q9UM73)?
### Response 20 to 80%
